System: VchCAST RNA-guided transposition machinery (E. coli BL21(DE3) host, lacZ target)
Assay: relative integration efficiency (T-LR orientation) vs wild-type transposon end (log2 (normalized fold change)); transposon end mutated: right end (5 bp flank + 75 bp right end); higher = more efficient transposition
assayMetric: relative integration efficiency (log2)

polymerSequence	measuredTarget	resultValue
ACATTTGTTGATACAACCATAAAATGATTTAATCACCCATAAATTGATTTAATTCACACCCATAAATTGATTAACGCTCTGATCATAGTCAGACCAACATTGCTACGACCCGTATTCGCACCGACAC	VchCAST RNA-guided transposition machinery (E. coli BL21(DE3) host, lacZ target)	-0.00841
ACATTTGTCGATACAACCATAAAATGATAATTACCACCCATAAATTGATAATTATCACACCCATTTAACTATAACGCTCTGATCATAGTCAGACCAACATTGCTACGACCCGTATTCGCACCGACAC	VchCAST RNA-guided transposition machinery (E. coli BL21(DE3) host, lacZ target)	1.62
ACATTTGTTGATACAACCATAAAATGATAATTAATAATTATTTATAATCAGCAACTTACACCCATAAATTGATAATTATCAACAAACGCCCGGTCGCGGTACTCTGATCATAGTCAGACCAACATTG	VchCAST RNA-guided transposition machinery (E. coli BL21(DE3) host, lacZ target)	-1.91

###

Tested on: VchCAST RNA-guided transposition machinery (E. coli BL21(DE3) host, lacZ target)
Test: relative integration efficiency (T-RL orientation) vs wild-type transposon end (log2 (normalized fold change)); transposon end mutated: right end (5 bp flank + 75 bp right end); higher = more efficient transposition
Tick label 1 if relative integration efficiency (log2) is -1 or greater. Tick label 0 if relative integration efficiency (log2) is less than -1.

polymerSequence	cat
ACATTTGTTGATACAACCATAAAATGATAATTACACCCATAAATTGATAATTCACACCCATAAATTGATATTGCCTCTGATCATAGTCAGACCAACATTGCTACGACCCGTATTCGCACCGACACTG	label 0
ACATTTGTTGATACAACCATAAAATGATAATTAACAACATAAATTGATAATTATCACACCCATAAATTGATATTGCCTCTGATCATAGTCAGACCAACATTGCTACGACCCGTATTCGCACCGACAC	label 1
ACATTTGTTCATCCAACCATAAAATGATAATTACACCCATAAATGGATCATTATCACACCCAATTTAACTATAACGCTCTGATCATAGTCAGACCAACATTGCTACGACCCGTATTCGCACCGACAC	label 0
ACATTTGTTGATACAACCATAAAATGATAAATACACCCATAAATTGATAATTGTGACACCGAATTTAACTATAACGCTCTGATCATAGTCAGACCAACATTGCTACGACCCGTATTCGCACCGACAC	label 1
ACATTTGTTGATATGTTGACAACCATAAAATGATAATTACACCCATAAATTGATAATTATCACACCCATAAATTGATATTGCCTCTGATCATAGTCAGACCAACATTGCTACGACCCGTATTCGCAC	label 0
ACATTTGTTGATACAACCATAAAGTGATATTTACACCCATAAATTGATAATTATCAGTGGGTATTTAACTATAACGCTCTGATCATAGTCAGACCAACATTGCTACGACCCGTATTCGCACCGACAC	label 1
ACATTTGTTGATACAACCATAAAATGATAATTACACCCATAAATTGATAATTATCACAAACATAAATTGATATTGCCTCTGATCATAGTCAGACCAACATTGCTACGACCCGTATTCGCACCGACAC	label 1
ACATTTGTTGATACAACCATAAAATGATAATAACACCCATAAAATGATAATTATCACACCCAATTTAACTATAACGCTCTGATCATAGTCAGACCAACATTGCTACGACCCGTATTCGCACCGACAC	label 1
ACATTTGTTGATACAACCATAAAATGATAATTACACCCATAAATTGATAATTATCAACAAACGCCCGGTCGCGGTACTCTGATCATAGTCAGACCAACATTGCTACGACCCGTATTCGCACCGACAC	label 1
ACATTTGTTGATACAACCATAAAATGATAATTCACACCATAAATTGATAATTATCACACCCATAAATTGATATTGCCTCTGATCATAGTCAGACCAACATTGCTACGACCCGTATTCGCACCGACAC	label 1
ACATTTGTTGATAGAACCATATAATGATAATAACACCCATAAAATGATAATTATCACACCCAATTTAACTATAACGCTCTGATCATAGTCAGACCAACATTGCTACGACCCGTATTCGCACCGACAC	label 0
ACATTTGCTGATAGAACCATATAATGATAATAACACCCATAAAATGATAATTATCACACCCAATTTAACTATAACGCTCTGATCATAGTCAGACCAACATTGCTACGACCCGTATTCGCACCGACAC	label 0
ACATTTGTCGATACAACCATAAAACGATAATTACACCCATAAATTGATAATTATCACACCCAATTTAACTATAACGCTCTGATCATAGTCAGACCAACATTGCTACGACCCGTATTCGCACCGACAC	label 0
ACATTTGTTGATACAACCATAAAATGATAATTACAACCATAAAATGATAATTATCAGTGGGTATTTAACTATAACGCTCTGATCATAGTCAGACCAACATTGCTACGACCCGTATTCGCACCGACAC	label 1
ACATTTGTTGATACAACCATATATTGATATCTCCAACCATAAAGTGATATTTATCACAACCATATATTGATATCTCCTCTGATCATAGTCAGACCAACATTGCTACGACCCGTATTCGCACCGACAC	label 1
ACATTTGTTGATACAACCATATTTAGATAATTACACCCATAAATTGATAATTATCACACCCATAAATTGATATTGCCTCTGATCATAGTCAGACCAACATTGCTACGACCCGTATTCGCACCGACAC	label 1
ACATTTGTTGATACAACCATAAAATGATAATTACACCCATAAATTGATAATTATCACACCCATAAATTGATATTGCCTCTGATCATTTGCATAAAAATTCATCTAGTCAGACCAACAGCACCGACAC	label 1
ACATTTGTTCATACAACCATAAAATGATAATTACACCCATAAATTGATAATTATCACCCCCAATTTAACTATAACGCTCTGATCATAGTCAGACCAACATTGCTACGACCCGTATTCGCACCGACAC	label 1
ACATTTGTTGATACAACCATAAAATGATAATTACACCCATAAATGTCGAATTATCACACCCATAAATTGATATTGCCTCTGATCATAGTCAGACCAACATTGCTACGACCCGTATTCGCACCGACAC	label 0
ACATTTGTTGATACAACCATAAGTTGATATTTTCAACCATAAAATGATAATTATCACAACCATAAAATGATAATTACTCTGATCATAGTCAGACCAACATTGCTACGACCCGTATTCGCACCGACAC	label 1

###

System: VchCAST RNA-guided transposition machinery (E. coli BL21(DE3) host, lacZ target)
Assay: relative integration efficiency (T-RL orientation) vs wild-type transposon end (log2 (normalized fold change)); transposon end mutated: right end (5 bp flank + 75 bp right end); higher = more efficient transposition
Note to self: values exactly at -0.6 are met. So relative integration efficiency (log2) at or above -0.6 is met, below is not met.

polymerSequence	cat
ACATTTGTTGATACAACCATAAAATGATAATTACACCCATAAATGTATAATTATCACACCCATAAATTGATATTGCCTCTGATCATAGTCAGACCAACATTGCTACGACCCGTATTCGCACCGACAC	met
ACATTTGTTGATACAACCATAAAATGATAATTACACCCATAAATTGATAATTATCACACCCATAAATTGATCGGTAAGAGGATCATAGTCAGACCAACATTGCTACGACCCGTATTCGCACCGACAC	met
ACATTTGTTGATACAACCATCAAATGGTAATTACACCCCTACATTGATAATTATCACACCCAATTTAACTATAACGCTCTGATCATAGTCAGACCAACATTGCTACGACCCGTATTCGCACCGACAC	not met
ACATTACAAGATACAACCATAAAATGATAATTACACCCATAAATTGATAATTATCACACCCATAAATTGATATTGCCTCTGATCATAGTCAGACCAACATTGCTACGACCCGTATTCGCACCGACAC	not met
ACATTTGTTGATACAACCATAAAATGATAATTACACCCATAAATTGCGCCGGCGACACAAACGCCCGGTCGCGGTAAGAGGATCATAGTCAGACCAACATTGCTACGACCCGTATTCGCACCGACAC	not met
